Taken from ChEMBL document CHEMBL1154018.

TEST PROTOCOL: Cytotoxicity against human EPG85-257P cells after 24 hrs by SRB method
Format: functional, cell-based
MEASURED QUANTITY: IC50 (µM)
Give just the numeric value; µM need not be written.

[Q] Query IC50 for C=C(C)[C@@H]1CC[C@]2(C(=O)O)CC[C@]3(C)[C@H](CC[C@@H]4[C@@]5(C)CC[C@H](OC(=O)[C@@H](N)CCCN)C(C)(C)[C@@H]5CC[C@]43C)[C@@H]12
[A] 9.7

[Q] Write down IC50 measured for item C=C(C)[C@@H]1CC[C@]2(C(=O)O)CC[C@]3(C)[C@H](CC[C@@H]4[C@@]5(C)CC[C@H](O)C(C)(C)[C@@H]5CC[C@]43C)[C@@H]12
[A] 42
